Molecular target: Recombinant Human 5′-Nucleotidase (CD73) (Homo sapiens, UniProt P21589)
Construct: CHO derived CD73 (Trp27-Lys547), with a C-terminal 6-His tag; 6-His (C)
Sequence (P21589 27-547): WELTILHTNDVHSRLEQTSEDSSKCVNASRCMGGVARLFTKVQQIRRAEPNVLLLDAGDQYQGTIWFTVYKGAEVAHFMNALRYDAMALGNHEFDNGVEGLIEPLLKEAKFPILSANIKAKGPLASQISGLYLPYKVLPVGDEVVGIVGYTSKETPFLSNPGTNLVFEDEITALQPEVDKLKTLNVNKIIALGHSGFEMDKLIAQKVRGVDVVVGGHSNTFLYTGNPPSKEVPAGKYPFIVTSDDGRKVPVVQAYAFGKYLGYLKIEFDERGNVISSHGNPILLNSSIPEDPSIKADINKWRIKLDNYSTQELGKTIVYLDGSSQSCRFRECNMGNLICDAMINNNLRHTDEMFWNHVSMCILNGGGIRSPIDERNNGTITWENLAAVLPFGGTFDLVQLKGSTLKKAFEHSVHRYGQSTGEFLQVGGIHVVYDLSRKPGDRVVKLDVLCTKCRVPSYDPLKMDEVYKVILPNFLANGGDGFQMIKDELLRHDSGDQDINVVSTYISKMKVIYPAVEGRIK
Assay: CD73 Enzyme Assay
Conditions: 0.5 nM human CD73, 30 μM AMP, PiColorLock phosphate detection, OD 635 nm; read-out: Potency (IC50)
pIC50: −log10 of the molar value.
pIC50 values for the molecules below.

Answered examples (3):
molecule	pIC50
O=P(O)(O)CP(=O)(O)OC[C@H]1O[C@@H](c2ccc3c(NCc4ccccc4)nc(Cl)nc3c2)[C@H](O)[C@@H]1O [Compound 1]	7.00 to 8.00
O=P(O)(O)CP(=O)(O)OC[C@H]1O[C@@H](c2ccc3c(N4CC5CCCC5C4)nc(Cl)nc3c2)[C@H](O)[C@@H]1O (stereo partly shown) [Compound 24]	> 8.00
O=P(O)(O)CP(=O)(O)OC[C@H]1O[C@@H](c2ccc3c(OC4CCCC4)nc(Cl)nc3c2)[C@H](O)[C@@H]1O [Compound 33]	6.00 to 7.00

Asked: Note down pIC50 recorded for Cc1nc(NCc2ccccc2)c2ccc([C@@H]3O[C@H](COP(=O)(O)CP(=O)(O)O)[C@@H](O)[C@H]3O)cc2n1 [Compound 17]
Given back: 7.00 to 8.00

Asked: Give me measured pIC50, please, for this molecule: O=P(O)(O)CP(=O)(O)OC[C@H]1O[C@@H](c2ccc3c(NC4CCc5ccccc54)nc(Cl)nc3c2)[C@H](O)[C@@H]1O (stereo partly shown) [Compound 25]
Given back: > 8.00

Asked: Could you please provide reported pIC50 for O=P(O)(O)CP(=O)(O)OC[C@H]1O[C@@H](c2ccc3c(N[C@@H]4CCOC4)nc(Cl)nc3c2)[C@H](O)[C@@H]1O [Compound 38] ? Thanks!
Given back: 7.00 to 8.00

Asked: Please list pIC50 recorded for the molecule CCc1nc(NCc2ccccc2)c2ccc([C@@H]3O[C@H](COP(=O)(O)CP(=O)(O)O)[C@@H](O)[C@H]3O)cc2n1 [Compound 20]
Given back: 6.00 to 7.00

Asked: Report measured pIC50; entry is O=P(O)(O)CP(=O)(O)OC[C@H]1O[C@@H](c2cc3nc(Cl)nc(NCc4ccccc4)c3cc2F)[C@H](O)[C@@H]1O [Compound 19]
Given back: 6.00 to 7.00

Asked: State its pIC50: O=P(O)(O)CP(=O)(O)OC[C@H]1O[C@@H](c2ccc3c(NCc4ccccc4)ncnc3c2)[C@H](O)[C@@H]1O [Compound 12]
Given back: 7.00 to 8.00
